- System: Plasmodium falciparum Sir2 (PF13_0152, Sir2A)
- Assay Name: pfSir2 binders on small-molecule microarrays, primary screen, biochemical, small-molecule microarray, 635 nm fluorescence (AID 1098);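 note: score merges spot fluorescence intensity with its signal-to-noise ratio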
- Reported Conditions: small-molecule microarray binding, fluorescence 635 nm; higher = more signal
Measured Parameter: composite z-score

Reference set, count: 4
1. N#Cc1ccc(NN2C(C(O)c3c(F)cccc3Cl)C=CC3C(=O)N(c4ccccc4)C(=O)C32)cc1 (stereo unspecified) :: 1.08
2. C=CCOC(=O)[C@@H]1[C@H]2C(=O)O[C@H](c3ccccc3)[C@H](c3ccccc3)N2[C@H](c2ccc(OCCOC(=O)[C@@H]3C[C@@H]4C(=O)N[C@@H](CCCCN(C)C)C(=O)N4[C@@H]3c3ccc(O)cc3)cc2)[C@@]12C(=O)Nc1ccc(I)cc12 :: 1.14
3. O=C1c2ccccc2[C@@]2(Cc3ccccc3N(CCN3CCOCC3)C2=O)[C@H](c2ccc(CO)cc2)N1Cc1ccccc1 :: 0.878
4. CC(C)C[C@H]1NC(=O)[C@@]23C(=O)N[C@@H](Cc4ccccc4)C2[C@H](C)[C@@]2(C)O[C@H]2C3/C=C/C/C=C\CNC(=O)[C@H](Cc2ccccc2)NC1=O (stereo partly specified) :: 0.777

Form entry - test system: Plasmodium falciparum Sir2 (PF13_0152, Sir2A); read-out: composite z-score; compound: CN1C2C=C(CCCO)C(C3C(=O)N(C(N)=O)C(=O)C32)C1c1ccc(CN2CCCC2)cc1 (stereo unspecified)
-0.323

What do you get for COCCOC(=O)N1C(=O)[C@@]2(c3cc(C#CC4=CCCCC4)ccc31)[C@H](C(=O)Nc1nc3ccccc3s1)[C@H]1C(=O)O[C@H](c3ccccc3)[C@H](c3ccccc3)N1[C@@H]2c1ccc(OCCO)cc1 ?
0.687

Another compound: COC(=O)[C@@]1(Cc2ccc(OC)cc2)[C@H]2c3cc(C(=O)N(C)C)n(CCN4CNCC4=O)c3C[C@H]2CN1C(=O)c1ccccc1
0.44

Next compound: CC(C)N1C(=O)[C@@]2(Cc3ccccc31)c1ccccc1C(=O)N(C1CCCCC1)[C@H]2c1ccc(CO)cc1
1.15

Please give the result for CC(C)(C)OC(=O)CC[C@]1(C(=O)NCC(O)CO)COC(c2ccc(OCCCO)cc2)=N1 (stereo partly specified) too.
0.304

###

- Assay Target: Calmodulin-1 (Homo sapiens)
- Assay Name: CALM1 binders on microarrays, EGTA buffer, profiling panel, biochemical, small-molecule microarray, Cy5-labelled CALM1 (AID 1111);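 note: labelled calmodulin applied in Tris saline Tween buffer holding calcium plus EGTA and DTT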
- Reported Conditions: Cy5-CALM1 binding fluorescence, higher = more signal
Measured Parameter: composite z-score
Number, no unit, nothing else.

Consider the following illustrative entries.
1) Cc1ccc(S[C@]2(C(=O)NCCN3CCOCC3)CC(=O)N(Cc3ccccc3)[C@@H]2c2ccc(CO)cc2I)cc1 :: -0.318
2) CC(C)(C)C(=O)N[C@@H](c1ccc(Cl)cc1)[C@]1(C)C[C@H]1C1CCCCC1 :: 1.27
3) Cc1ccc(C(C)CC(O)C2C=CC3C(=O)N(c4ccccc4)C(=O)C3N2Nc2ccc([N+](=O)[O-])cc2)o1 (centres undefined) :: 1.17

Now take the following molecule into account.
Endpoint output: composite z-score of C=CCC(OC(C)=O)[C@@H]1[C@@H](N(Cc2ccc(-c3cccc(C(F)(F)F)c3)o2)C(=O)Cc2ccc(F)cc2)c2cc(OCCCO)ccc2N1C(=O)Cc1ccc(OC)cc1 (some centres undefined) . Value?
-0.718
